system: C. albicans R303; assay: mouse candidiasis infection model, IP administration, kidney fungal burden; format: in vivo; settings: Candida albicans, R303, ip, 24 h, Fourth run; IP 1.5 mg/kg; read-out: Difference from 24-h control
Endpoint Name: log reduction at 1.5 mg/kg

The cases that follow already have their log reduction at 1.5 mg/kg on record.
CCCCCOc1ccc(-c2ccc(-c3ccc(C(=O)N[C@H]4C[C@@H](O)C(NCCNCCO)NC(=O)C5[C@@H](O)[C@@H](C)CN5C(=O)C([C@@H](C)O)NC(=O)C([C@H](O)[C@@H](O)c5ccc(O)cc5)NC(=O)C5C[C@@H](O)CC5C(=O)C([C@@H](C)O)NC4=O)cc3)cc2)cc1 (stereo partly drawn)    3.95
CCCCCOc1ccc(-c2ccc(-c3ccc(C(=O)N[C@H]4C[C@@H](O)C(OCCNCCN)NC(=O)C5[C@@H](O)[C@@H](C)CN5C(=O)C([C@@H](C)O)NC(=O)C([C@H](O)[C@@H](O)c5ccc(O)cc5)NC(=O)C5C[C@@H](O)CN5C(=O)C([C@@H](C)O)NC4=O)cc3)cc2)cc1 (stereo partly drawn)    3.55

Query CCCCCOc1ccc(-c2ccc(-c3ccc(C(=O)N[C@H]4C[C@@H](O)C(NCCOCCOCCN)NC(=O)C5[C@@H](O)[C@@H](C)CN5C(=O)C([C@@H](C)O)NC(=O)C([C@H](O)[C@@H](O)c5ccc(O)cc5)NC(=O)C5C[C@@H](O)CC5C(=O)C([C@@H](C)O)NC4=O)cc3)cc2)cc1 (stereo partly drawn) yields log reduction at 1.5 mg/kg of 2.8
